experimental_target: KinA/Spo0F (sporulation kinase A/sporulation initiation phosphotransferase F) (Bacillus subtilis (strain 168), UniProt P06628+P16497)
measurement_notes: Inhibition of autophosphorylation of the two-component signal transduction system kinase was measured using the KinA/Spo0F regulatory system of Bacillus subtilis.
Type: functional
IC50 vs 10 µM: less than gives Condition met; not less than gives Condition not met.

Solved entries (count: 4):
Determine whether this compound shows IC50 lower than 10 µM (ties excluded): `O=C(Nc1ccc(Cl)c(Cl)c1)c1cccc(O)c1O`
Condition met

Take the compound `O=C(Nc1ccc([N+](=O)[O-])cc1)c1cc(Cl)cc(Cl)c1O` and say whether its IC50 is less than 10 µM.
Condition not met

Consider the compound Cc1cc(C(C#N)c2ccc(Cl)cc2)c(Cl)cc1NC(=O)c1cc(I)cc(I)c1O (stereo not drawn) . Is its IC50 strictly less than 10 µM?
Condition met

is_below(IC50, 10 µM) for Cc1cc(C(CN)c2ccc(Cl)cc2)c(Cl)cc1NC(=O)c1cc(I)cc(I)c1O (stereo not drawn) ?
Condition not met

More entries:
Lab log: compare recorded IC50 with 10 µM; is it strictly lower for `COc1ccc(NC(=O)c2cc(Cl)cc(Cl)c2O)cc1` ?
Condition not met

Quick check: does `CC(C)(C)c1ccc(NC(=O)c2cc(Cl)cc(Cl)c2O)cc1` have IC50 under 10 µM?
Condition not met

Given `COc1cc(OC)c(O)c(C(=O)Nc2ccc(Cl)c(Cl)c2)c1` , is recorded IC50 strictly lower than 10 µM?
Condition not met

Is 10 µM strictly greater than the compound's reported IC50? compound: `CC(C)(C)c1cc(C(=O)Nc2ccc(Cl)c(Cl)c2)c(O)c(C(C)(C)C)c1`
Condition not met

Consider `O=C(Nc1ccc(Cl)c(Cl)c1)c1cc(Cl)ccc1O` . Does its IC50 lie strictly below 10 µM?
Condition not met

Consider the compound `O=C(Nc1ccccc1)c1cc(Cl)cc(Cl)c1O` . Is its IC50 strictly less than 10 µM?
Condition not met

Decide: IC50 of `O=C(Nc1ccc(Cl)c(Cl)c1)c1cc(C(F)(F)F)ccc1O` strictly below 10 µM?
Condition not met

Is IC50 strictly under 10 µM for the entry Cc1cc(C(C#N)c2ccc(Cl)cc2)c(Cl)cc1NC(=O)c1cccc(O)c1O (stereo not drawn) ?
Condition met

Is it true that IC50 reported for Cc1cc(C(C#N)c2ccc(Cl)cc2)c(Cl)cc1NC(=O)c1cc(Cl)cc(Cl)c1O (stereo not drawn) is less than 10 µM?
Condition met
